Target: HCV NS5B570n-BK (Hepatitis C virus genotype 1b, UniProt P26663)
Construct: histidine tag (N); made in house; host or cells: E. coli strain M15
Sequence (P26663 2420-2989): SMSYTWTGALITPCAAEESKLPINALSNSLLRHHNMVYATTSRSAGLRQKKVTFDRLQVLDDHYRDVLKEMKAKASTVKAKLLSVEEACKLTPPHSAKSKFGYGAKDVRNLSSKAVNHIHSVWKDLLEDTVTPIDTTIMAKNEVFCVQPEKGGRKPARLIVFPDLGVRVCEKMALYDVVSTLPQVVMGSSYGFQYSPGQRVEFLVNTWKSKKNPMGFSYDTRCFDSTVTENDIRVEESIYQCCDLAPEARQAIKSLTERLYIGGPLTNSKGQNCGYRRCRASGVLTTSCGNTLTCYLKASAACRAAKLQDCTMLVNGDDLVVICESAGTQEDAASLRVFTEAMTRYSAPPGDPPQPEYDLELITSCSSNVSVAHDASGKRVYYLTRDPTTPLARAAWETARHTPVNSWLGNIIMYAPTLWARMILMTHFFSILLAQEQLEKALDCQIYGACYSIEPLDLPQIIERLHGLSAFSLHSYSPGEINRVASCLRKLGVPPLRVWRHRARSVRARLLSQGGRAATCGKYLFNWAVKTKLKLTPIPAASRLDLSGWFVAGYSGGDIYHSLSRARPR
Experiment: HCV NS5B RNA Polymerase Activity
Assay type: biochemical
assay-endpoint: pIC50
Give bare numbers, as −log10 of the molar value.

compound: CC(C)(C)[C@H]1C(O)=C(C2=C(Cl)S(=O)(=O)c3cc(NS(C)(=O)=O)ccc3N2)C(=O)N1Cc1ccc(F)cc1
pIC50: 8.70

Next item in the queue.
GET /value?item= CC(C)(C)C1C(O)=C(C2=C(C#N)S(=O)(=O)c3cc(NS(C)(=O)=O)ccc3N2)C(=O)N1Cc1ccc(F)cc1 (centres unmarked) &field=pIC50 returns 8.22

Reference source: patent US7531534B2
